- tgt: Neuropeptide Y receptor type 1 (Homo sapiens, UniProt P25929)
- Sequence (P25929 whole entry): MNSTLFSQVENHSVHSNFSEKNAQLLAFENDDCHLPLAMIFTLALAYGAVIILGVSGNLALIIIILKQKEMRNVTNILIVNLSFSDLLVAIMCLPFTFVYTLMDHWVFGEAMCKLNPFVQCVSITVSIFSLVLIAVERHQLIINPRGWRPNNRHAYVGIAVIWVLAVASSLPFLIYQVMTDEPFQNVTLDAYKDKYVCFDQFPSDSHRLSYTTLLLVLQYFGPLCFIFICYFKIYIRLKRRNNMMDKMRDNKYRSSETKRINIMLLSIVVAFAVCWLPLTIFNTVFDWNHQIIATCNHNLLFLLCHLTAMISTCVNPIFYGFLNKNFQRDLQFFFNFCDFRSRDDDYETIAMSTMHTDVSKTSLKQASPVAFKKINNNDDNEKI
quantity-name: AC50

Completed entries (count: 6):
[
  {
    "compound": "CN1CCN(c2c(F)cc3c(=O)c(C(=O)O)cn4c3c2SCC4)CC1 [RUFLOXACIN]",
    "quantity-name": "AC50",
    "recorded-value": "> 30 µM"
  },
  {
    "compound": "CCC(=O)OCC(=O)[C@@]1(OC(=O)CC)[C@@H](C)C[C@H]2[C@@H]3CCC4=CC(=O)C=C[C@]4(C)[C@@]3(F)[C@@H](O)C[C@@]21C [BETAMETHASONE DIPROPIONATE]",
    "quantity-name": "AC50",
    "recorded-value": "> 30 µM"
  },
  {
    "compound": "Nc1nc(O)c2ncn(COC(CO)CO)c2n1 [GANCICLOVIR]",
    "quantity-name": "AC50",
    "recorded-value": "> 30 µM"
  },
  {
    "compound": "COc1c(O[C@@H]2O[C@H](CO)[C@@H](O)[C@H](O)[C@H]2O)cc2c(c1OC)-c1ccc(SC)c(=O)cc1[C@@H](NC(C)=O)CC2 [THIOCOLCHICOSIDE]",
    "quantity-name": "AC50",
    "recorded-value": "> 30 µM"
  },
  {
    "compound": "CC(=O)Oc1ccccc1C(=O)Nc1ncc([N+](=O)[O-])s1 [NITAZOXANIDE]",
    "quantity-name": "AC50",
    "recorded-value": "17 µM"
  },
  {
    "compound": "C[C@]12CC[C@H](O)CC1=CC[C@@H]1[C@@H]2CC[C@]2(C)C(c3cccnc3)=CC[C@@H]12 [ABIRATERONE]",
    "quantity-name": "AC50",
    "recorded-value": "> 30 µM"
  }
]

Q. I would be grateful if you could share the reported AC50 for CC(C)=CCOc1ccc(/C=C/C(=O)c2ccc(OCC=C(C)C)cc2OCC(=O)O)cc1 [SOFALCONE] .
A. > 30 µM

Q. I would be grateful if you could share the reported AC50 for CC(=O)S[C@@H]1CC2=CC(=O)CC[C@]2(C)[C@H]2CC[C@@]3(C)[C@@H](CC[C@@]34CCC(=O)O4)[C@H]12 [SPIRONOLACTONE] .
A. > 30 µM

Q. I would be grateful if you could share the reported AC50 for COCCCOc1ccnc(C[S+]([O-])c2nc3ccccc3[nH]2)c1C (stereo not given) [RABEPRAZOLE] .
A. 20.5 µM

Q. I would be grateful if you could share the reported AC50 for CC[C@H]1OC(=O)[C@H](C)[C@@H](O[C@H]2C[C@@](C)(OC)[C@@H](O)[C@H](C)O2)[C@H](C)[C@@H](O[C@@H]2O[C@H](C)C[C@H](N(C)C)[C@H]2O)[C@](C)(OC)C[C@@H](C)C(=O)[C@H](C)[C@@H](O)[C@]1(C)O [CLARITHROMYCIN] .
A. > 30 µM

----------
These records show AC50 for Delta-type opioid receptor (Homo sapiens, UniProt P41143).

Completed entries (count: 5):
[
  {
    "compound": "CN(C)c1cc(NC(=O)CNC(C)(C)C)c(O)c2c1C[C@H]1C[C@H]3[C@H](N(C)C)C(O)=C(C(N)=O)C(=O)[C@@]3(O)C(O)=C1C2=O",
    "AC50": "> 30 µM"
  },
  {
    "compound": "COC(=O)[C@H](c1ccccc1Cl)N1CCc2sccc2C1",
    "AC50": "> 30 µM"
  },
  {
    "compound": "CS(=O)(=O)OCCCCOS(C)(=O)=O",
    "AC50": "> 30 µM"
  },
  {
    "compound": "CNC(=O)c1cc(Oc2ccc(NC(=O)Nc3ccc(Cl)c(C(F)(F)F)c3)c(F)c2)ccn1",
    "AC50": "> 30 µM"
  },
  {
    "compound": "O=C1NC(=O)C(c2ccccc2)(c2ccccc2)N1",
    "AC50": "> 30 µM"
  }
]

Q. # query: AC50 | item "C[C@]1(COc2ccc(N3CCC(Oc4ccc(OC(F)(F)F)cc4)CC3)cc2)Cn2cc([N+](=O)[O-])nc2O1" | system: Delta-type opioid receptor (Homo sapiens, UniProt P41143); note: assay procedure not described here
A. > 30 µM

Q. # query: AC50 | item "O=c1oc2ccccc2c(O)c1Cc1c(O)c2ccccc2oc1=O" | system: Delta-type opioid receptor (Homo sapiens, UniProt P41143); note: assay procedure not described here
A. > 30 µM

Q. # query: AC50 | item CCCC(C)(COC(N)=O)COC(=O)NC(C)C (stereo not drawn) | system: Delta-type opioid receptor (Homo sapiens, UniProt P41143); note: assay procedure not described here
A. > 30 µM

----------
- tgt: Vasopressin V1a receptor (Homo sapiens)
- Sequence (P37288 whole entry): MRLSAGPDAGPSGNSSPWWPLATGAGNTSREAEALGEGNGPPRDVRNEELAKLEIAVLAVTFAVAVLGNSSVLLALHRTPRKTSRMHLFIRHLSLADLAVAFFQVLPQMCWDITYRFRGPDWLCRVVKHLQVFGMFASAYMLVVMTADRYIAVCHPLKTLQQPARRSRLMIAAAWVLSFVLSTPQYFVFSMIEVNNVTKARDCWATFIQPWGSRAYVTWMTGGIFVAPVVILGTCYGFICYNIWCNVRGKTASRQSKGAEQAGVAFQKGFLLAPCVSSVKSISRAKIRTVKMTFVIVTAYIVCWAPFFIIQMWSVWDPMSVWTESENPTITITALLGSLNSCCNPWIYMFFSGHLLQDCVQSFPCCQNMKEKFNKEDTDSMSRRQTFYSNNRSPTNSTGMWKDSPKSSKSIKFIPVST
Measured AC50 of individual entries

[
  {
    "compound": "CC1(C)C(/C=C/C=C/C=C/C=C2\\N(CCCCS(=O)(=O)O)c3ccc4ccccc4c3C2(C)C)=[N+](CCCCS(=O)(=O)[O-])c2ccc3ccccc3c21 [INDOCYANINE GREEN ACID FORM]",
    "AC50": "7.7 µM"
  },
  {
    "compound": "COc1c(O[C@@H]2O[C@H](CO)[C@@H](O)[C@H](O)[C@H]2O)cc2c(c1OC)-c1ccc(SC)c(=O)cc1[C@@H](NC(C)=O)CC2 [THIOCOLCHICOSIDE]",
    "AC50": "> 30 µM"
  },
  {
    "compound": "CC(=O)Nc1c(I)c(C(=O)N[C@H]2C(O)O[C@H](CO)[C@@H](O)[C@@H]2O)c(I)c(N(C)C(C)=O)c1I (stereo partly specified) [METRIZAMIDE]",
    "AC50": "> 10 µM"
  }
]

Q. # query: AC50 | item Clc1ccc(C(Cn2ccnc2)OCc2ccc(Sc3ccccc3)cc2)c(Cl)c1 (stereo unspecified) | system: Vasopressin V1a receptor (Homo sapiens); note: assay procedure not described here
A. > 30 µM

----------
Measured AC50 of individual entries
- tgt: UniProt:Q12809
- Sequence (Q12809 whole entry): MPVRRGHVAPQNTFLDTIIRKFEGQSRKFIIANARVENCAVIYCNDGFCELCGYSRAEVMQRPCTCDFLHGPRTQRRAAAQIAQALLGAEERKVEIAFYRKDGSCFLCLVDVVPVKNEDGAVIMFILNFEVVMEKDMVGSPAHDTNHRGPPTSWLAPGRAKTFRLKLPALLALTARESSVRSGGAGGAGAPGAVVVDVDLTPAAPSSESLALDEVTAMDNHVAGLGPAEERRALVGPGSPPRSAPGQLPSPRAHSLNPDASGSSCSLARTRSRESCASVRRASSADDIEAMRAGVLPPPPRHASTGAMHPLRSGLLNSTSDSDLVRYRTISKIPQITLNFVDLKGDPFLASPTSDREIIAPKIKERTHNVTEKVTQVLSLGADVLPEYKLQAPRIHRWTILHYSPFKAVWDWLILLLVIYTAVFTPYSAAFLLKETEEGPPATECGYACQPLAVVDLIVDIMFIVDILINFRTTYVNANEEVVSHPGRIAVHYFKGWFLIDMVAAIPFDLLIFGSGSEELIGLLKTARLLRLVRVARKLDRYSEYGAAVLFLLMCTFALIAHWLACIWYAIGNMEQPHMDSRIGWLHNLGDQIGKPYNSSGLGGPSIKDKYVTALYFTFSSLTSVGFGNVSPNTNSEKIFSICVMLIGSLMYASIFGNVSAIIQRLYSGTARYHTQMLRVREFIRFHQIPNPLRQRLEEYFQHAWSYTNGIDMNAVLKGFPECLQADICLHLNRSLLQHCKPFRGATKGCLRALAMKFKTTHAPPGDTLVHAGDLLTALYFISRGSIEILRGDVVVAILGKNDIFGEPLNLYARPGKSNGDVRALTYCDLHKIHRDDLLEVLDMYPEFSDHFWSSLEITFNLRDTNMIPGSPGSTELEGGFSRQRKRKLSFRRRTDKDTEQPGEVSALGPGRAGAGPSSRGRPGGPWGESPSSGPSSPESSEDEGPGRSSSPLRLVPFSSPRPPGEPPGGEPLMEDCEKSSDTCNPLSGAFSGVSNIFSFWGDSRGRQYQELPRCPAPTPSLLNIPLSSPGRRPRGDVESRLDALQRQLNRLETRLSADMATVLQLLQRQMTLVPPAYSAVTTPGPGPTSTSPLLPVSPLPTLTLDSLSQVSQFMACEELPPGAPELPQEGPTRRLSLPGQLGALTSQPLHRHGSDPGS
- Format: functional
- assay-setup: read-out: AC50; note: assay procedure not described here

Completed entries (count: 3):
[
  {
    "compound": "O=C(O)CCCc1ccc(N(CCCl)CCCl)cc1",
    "tgt": "UniProt:Q12809",
    "AC50": "> 30 µM"
  },
  {
    "compound": "CCCCOc1ccc(CC(=O)NO)cc1",
    "tgt": "UniProt:Q12809",
    "AC50": "> 30 µM"
  },
  {
    "compound": "CN1CCN(CCCN2c3ccccc3Sc3ccc(S(=O)(=O)N(C)C)cc32)CC1",
    "tgt": "UniProt:Q12809",
    "AC50": "0.4 µM"
  }
]

Query compound follows.
Q. I would be grateful if you could share the reported AC50 for COc1ccc(C(CN(C)C)C2(O)CCCCC2)cc1 (centres undefined) .
A. > 30 µM

----------
- tgt: Neuronal acetylcholine receptor subunit alpha-4 (Homo sapiens)
- Sequence (P43681 whole entry): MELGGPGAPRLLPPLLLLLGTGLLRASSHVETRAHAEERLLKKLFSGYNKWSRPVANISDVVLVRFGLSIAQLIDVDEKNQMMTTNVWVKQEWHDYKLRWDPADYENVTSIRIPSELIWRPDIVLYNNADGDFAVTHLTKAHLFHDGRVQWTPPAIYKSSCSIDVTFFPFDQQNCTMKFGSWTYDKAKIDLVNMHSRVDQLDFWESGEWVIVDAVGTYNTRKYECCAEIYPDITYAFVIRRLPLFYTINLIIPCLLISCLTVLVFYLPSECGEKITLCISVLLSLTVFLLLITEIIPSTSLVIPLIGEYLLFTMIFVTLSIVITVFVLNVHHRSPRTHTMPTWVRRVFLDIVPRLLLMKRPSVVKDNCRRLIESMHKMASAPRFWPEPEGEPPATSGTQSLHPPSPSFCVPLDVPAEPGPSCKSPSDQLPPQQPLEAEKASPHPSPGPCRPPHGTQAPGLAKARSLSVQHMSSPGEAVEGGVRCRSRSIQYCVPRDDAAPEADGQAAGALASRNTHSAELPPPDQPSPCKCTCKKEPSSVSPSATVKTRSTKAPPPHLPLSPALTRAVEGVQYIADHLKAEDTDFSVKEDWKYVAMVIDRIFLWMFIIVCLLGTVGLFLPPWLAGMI
quantity-name: AC50

Q. I would be grateful if you could share the reported AC50 for NS(=O)(=O)c1cc(C(=O)O)cc(N2CCCC2)c1Oc1ccccc1 [PIRETANIDE] .
A. > 30 µM

Q. I would be grateful if you could share the reported AC50 for "CN(C)c1cc(CNCC(C)(C)C)c(O)c2c1C[C@H]1C[C@H]3[C@H](N(C)C)C(O)=C(C(N)=O)C(=O)[C@@]3(O)C(O)=C1C2=O" .
A. > 30 µM

----------
- tgt: Prostaglandin G/H synthase 1 (Homo sapiens, UniProt P23219)
- Sequence (P23219 whole entry): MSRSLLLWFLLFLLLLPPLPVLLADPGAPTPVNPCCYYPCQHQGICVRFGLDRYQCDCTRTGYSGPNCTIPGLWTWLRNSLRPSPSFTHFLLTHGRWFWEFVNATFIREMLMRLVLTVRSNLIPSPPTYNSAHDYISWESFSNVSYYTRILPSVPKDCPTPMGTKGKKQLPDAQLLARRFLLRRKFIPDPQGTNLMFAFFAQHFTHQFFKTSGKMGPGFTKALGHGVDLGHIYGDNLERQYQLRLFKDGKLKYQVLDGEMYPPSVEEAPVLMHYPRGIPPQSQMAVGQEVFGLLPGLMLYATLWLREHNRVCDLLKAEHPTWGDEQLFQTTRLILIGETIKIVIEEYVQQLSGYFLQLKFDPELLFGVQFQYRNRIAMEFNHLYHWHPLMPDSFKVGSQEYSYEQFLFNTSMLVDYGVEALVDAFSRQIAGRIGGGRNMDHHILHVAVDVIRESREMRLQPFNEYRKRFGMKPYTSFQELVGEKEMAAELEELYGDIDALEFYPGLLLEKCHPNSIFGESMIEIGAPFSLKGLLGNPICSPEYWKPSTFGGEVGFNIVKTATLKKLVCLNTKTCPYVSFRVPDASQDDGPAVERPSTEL
- Type: functional
quantity-name: AC50

[
  {
    "molecule": "Nc1ncnc(Nc2ccc(Cl)cc2)n1",
    "recorded-value": "> 30 µM"
  }
]

Query molecule follows.
Q. I would be grateful if you could share the reported AC50 for "CC[C@H]1OC(=O)[C@H](C)[C@@H](O[C@H]2C[C@@](C)(OC)[C@@H](O)[C@H](C)O2)[C@H](C)[C@@H](O[C@@H]2O[C@H](C)C[C@H](N(C)C)[C@H]2O)[C@](C)(OC)C[C@@H](C)C(=O)[C@H](C)[C@@H](O)[C@]1(C)O" .
A. > 30 µM
